- target_under_test: HLA-A2 MHC-I (HLA-A*0204, affinity purified from the EBV transformed cell line RML) (human)
Provide the reported pKd of each item.
Give bare numbers, as −log10 of the molar value.

Sample records with pKd:
SLVKHHMYV (modifications not checked) [4.14] :: 7.68
TGNPPIPV (modifications not checked) [8.123natG] :: 6.15
ALAALITPK (modifications not checked) [8.12nat] :: 7.21

Respectfully, I request pKd for each entry included below.
1. WCFKLVPV (modifications not checked) [8.121nat]
2. FLWMGYELH (modifications not checked) [8.21nat]
3. YLAWVPAHK (modifications not checked) [8.42nat]

// result
1: 6.70; 2: 6.35; 3: 6.70
